In this section we review reported drug sensitivity score values for a set of compounds.
# System: CAF#7 (primary prostate cancer-associated fibroblasts of myCAF-like type)
# Method notes: drug sensitivity score (DSS2, normalised partial AUC of dose-response, 72 h CellTiter-Glo viability) (DSS (dimensionless)); higher = more sensitive (stronger growth inhibition / cytotoxicity); extreme values may be limits of the assay
Number only, no unit.

- Compound: "C[C@]12CC[C@H](O)CC1=CC[C@@H]1[C@@H]2CC[C@]2(C)C(c3cccnc3)=CC[C@@H]12 [Abiraterone] (tested concentration range 0.5-5000 nM)"
  drug sensitivity score: 0
- Compound: "COc1cccc2c1C(=O)c1c(O)c3c(c(O)c1C2=O)C[C@@](O)(C(=O)CO)C[C@@H]3O[C@H]1C[C@H](N)[C@H](O)[C@H](C)O1 [Doxorubicin] (tested concentration range 0.1-1000 nM)"
  drug sensitivity score: 0
- Compound: "CN1CCN(c2ccc(C(=O)Nc3n[nH]c4ccc(Cc5cc(F)cc(F)c5)cc34)c(NC3CCOCC3)c2)CC1 [Entrectinib] (tested concentration range 0.1-1000 nM)"
  drug sensitivity score: 2.1

So what's the measured drug sensitivity score for this one? CC(C)NC(=O)COc1cccc(-c2nc(Nc3ccc4[nH]ncc4c3)c3ccccc3n2)c1 [KD025] (tested concentration range 0.5-5000 nM) 0.5

Also CC(=O)O[C@@]12CO[C@@H]1C[C@H](O)[C@@]1(C)C(=O)[C@H](O)C3=C(C)[C@@H](OC(=O)[C@H](O)[C@@H](NC(=O)OC(C)(C)C)c4ccccc4)C[C@@](O)([C@@H](OC(=O)c4ccccc4)[C@H]21)C3(C)C [Docetaxel] (tested concentration range 0.1-1000 nM) ? 25.6
